B1: FAM50A (parent)
chain: KKREKQREQMEQMKQRIAEENIMK

Variants of: B1
assay-name: protein stability index of a GFP-peptide fusion (GPS, HEK-293T) (PSI 1-6); higher = more stable;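 further: lentivirally expressed fusions sorted by FACS into six bins by GFP to DsRed ratio, PSI derived from sequencing read proportions per bin multiplied by bin number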
condition-parameters: c terminus: a fixed tail appended
Readings of protein stability index for the listed variants
readout: protein stability index

>  <mutation-code>
M10C

>  <reported-value>
4.86

$$$$
>  <mutation-code>
E20L

>  <reported-value>
3.84

$$$$
>  <mutation-code>
K1A

>  <reported-value>
4.71

$$$$
>  <mutation-code>
K2D

>  <reported-value>
4.34

$$$$
>  <mutation-code>
K1Q

>  <reported-value>
5.15

$$$$
>  <mutation-code>
R16W

>  <reported-value>
3.94

$$$$
>  <mutation-code>
M10S

>  <reported-value>
4.89

$$$$
>  <mutation-code>
K1F

>  <reported-value>
4.22

$$$$

Entry source: the supplement of paper PMC10567573
